system: Lefty1; test: Lefty1 binders on small-molecule microarrays, primary screen, biochemical, small-molecule microarray, 635/667 nm fluorescence (AID 1139); settings: small-molecule microarray binding, fluorescence 635/667; higher = more signal
Returns Satisfied if the recorded composite z-score is greater than or equal to 0.4, and Not satisfied otherwise.

Illustrative cases are given below, each with its answer.
# check: composite z-score of COC(=O)CC=C[C@H](C)[C@@H](OCc1cccc(Br)c1)[C@@H](C)[C@H](OC)C1CCCCC1 is greater than or equal to 0.4
Satisfied

# check: composite z-score of CCOC(=O)[C@H](CC(C)C)NC(=O)CCC1CC(OC(=O)NCCc2ccc(F)cc2)CC2(CCCC(COC(=O)NCC(c3ccccc3)c3ccccc3)O2)O1 (some centres undefined) is greater than or equal to 0.4
Satisfied

# check: composite z-score of COC(=O)[C@@H]1CC[C@H](C)[C@@H](c2ccc(C)cc2)N1C(=O)c1ccc(C=NO[C@@H]2O[C@H](COC(C)=O)[C@@H](OC(C)=O)[C@H](OC(C)=O)[C@H]2OC(C)=O)cc1 is greater than or equal to 0.4
Satisfied

# check: composite z-score of CCc1cc2c(nc1CC)CCN(CCC(C)=NO[C@H](C)c1cn([C@H](CO)Cc3ccccc3)nn1)C2 is greater than or equal to 0.4
Satisfied

# check: composite z-score of O=C(NN=C1C[C@@H](O)[C@@H](O)[C@@H]2[C@@H]3C(=O)N(C[C@@H]4CCCO4)C(=O)[C@@H]3CC[C@@H]12)OCc1ccccc1 is greater than or equal to 0.4
Not satisfied

# check: composite z-score of CO[C@H]1COC(=O)CC=C[C@H](C)[C@@H](OC)COC(=O)[C@@H](C)COC(=O)CC=C[C@@H]1C is greater than or equal to 0.4
Satisfied

# check: composite z-score of CON=Cc1ccc(C(=O)N2[C@H](c3ccc(C)cc3)[C@@H](C)CC[C@H]2C(=O)OC)cc1 is greater than or equal to 0.4
Satisfied

# check: composite z-score of COc1ccc(O[C@H]2C=C[C@@H](c3ccccc3)O[C@@H]2CON=C(C)CCC(=O)OC[C@H]2O[C@H](c3ccccc3)C=C[C@@H]2Oc2ccc(OC)cc2)cc1 is greater than or equal to 0.4
Not satisfied

# check: composite z-score of CCOC(=O)[C@H](Cc1ccccc1)NC(=O)CCC1CC(OC(=O)NCc2cccc3ccccc23)CC2(CCCC(COC(=O)NCCC(C)C)O2)O1 (some centres undefined) is greater than or equal to 0.4
Not satisfied

# check: composite z-score of CCOC(=O)[C@H](Cc1ccccc1)NC(=O)CCC1CC(OC(=O)NCCc2ccc(F)cc2)CC2(CCCC(COC(=O)NCCOC)O2)O1 (some centres undefined) is greater than or equal to 0.4
Satisfied

New cases:
# check: composite z-score of CC(C)=NOC[C@@H](C)[C@H](OCc1ccccc1)C(C)C is greater than or equal to 0.4
Not satisfied

# check: composite z-score of CC(C)CON=C1C[C@@H](O)[C@@H](O)[C@@H]2[C@@H]3C(=O)N(c4ccc(F)cc4F)C(=O)[C@@H]3CC[C@H]12 is greater than or equal to 0.4
Satisfied

# check: composite z-score of CC(C)=CCCC(C)=CCON=C1C[C@@H](O)[C@@H](O)[C@@H]2[C@@H]3C(=O)N(C[C@@H]4CCCO4)C(=O)[C@@H]3CC[C@H]12 is greater than or equal to 0.4
Satisfied
